System: TO-N3 (biotin conjugate)
measurement protocol: pull-down binding Z-score (relative to library population); higher = stronger binding
condition: RNA library: Library-2
measure: pull-down binding Z-score

Answered examples (10):
sequence data	target	reported value
CCAGGUUCCAUGUGAUGCUGAA [hsa-mir-6806]	TO-N3 (biotin conjugate)	0.316
GCUCUGGGGAUUUGGUCUCACAGC [hsa-mir-3940]	TO-N3 (biotin conjugate)	-0.497
CCCACUUCCUGGA [hsa-mir-4260]	TO-N3 (biotin conjugate)	-0.494
GAGUUUGGGAUUUGAAAAAACC [hsa-mir-181a-2]	TO-N3 (biotin conjugate)	0.394
GUCUUGAUCCCCCACCCCAAGAC [hsa-mir-642b]	TO-N3 (biotin conjugate)	-0.41
AUUGUUCAACUUAGUGAAAUUAGUAUGGACAAU	TO-N3 (biotin conjugate)	0.606
GCUUGUCACACCGUUUCUAUAGAUUAGCUAAUGAGUGUGCUCAAGU	TO-N3 (biotin conjugate)	-0.0415
CGUUGAGUGGGCACCCGAGAAGCCAUCG [hsa-mir-425]	TO-N3 (biotin conjugate)	0.583
UAAUAACUGACAAACAGACAAUUG [hsa-mir-4774]	TO-N3 (biotin conjugate)	-0.376
GCUCAAGCCACAGCAGGGUGUUUAGCGCUCUUCAGUGGCUCCAG [hsa-mir-1203]	TO-N3 (biotin conjugate)	0.563

Provide each entry's pull-down binding Z-score from the list below.
1. UUUACCAUUACUUUCAAUGGCAAA [hsa-mir-548a-3]
2. AAAUUUUUGGCUUUGUGUGCUGACUCUAUCAUUAUUGGUGGAGCUAAACUUAAAGCCUUGAAUUU [SHAPE_invivo_SARS-CoV-2_Motif_45]
3. AUGAUAUAUUGUGAGAGCCAUGUCAU [hsa-mir-6718]
4. AUUGCUGGACGCUGCCCUGGGCAU [hsa-mir-25]
5. GGAGGAGGAGGAGGAGGAGGAGGAGGAGGAGGAGGAGGAGGAGGAGGA [G4_r(GGA)16]
6. CUUUAGCUAUUCUGAAUGCCUAAAG [hsa-mir-4662a]
7. ACUACUAUAGGCCGCUGGGAAGCAGU [hsa-mir-130b]
8. CAUUACUAAACUCAGUAAUG [hsa-mir-451b]

## Result
[-1.76, -0.00867, -0.0603, 1.12, 5.89, -0.375, 1.13, -1.23]

Provide each entry's pull-down binding Z-score from the list below.
1. CCUGACAGACAGCCUGAUAGACAGG [hsa-mir-4661]
2. UUGUGUGGUAUCCGUAUAGUCACAG [hsa-mir-10b]

## Result
[1.96, -0.277]

----------
Tested on: G-clamp-N3 (biotin conjugate)
measurement protocol: pull-down binding Z-score (relative to library population); higher = stronger binding
condition: RNA library: Library-1 (pre-miRNA loops + repeats)
measure: pull-down binding Z-score

Answered examples (5):
sequence data	target	reported value
CUUUAGGCAUUCAGAAUAGCUAAAG [hsa-mir-4662b]	G-clamp-N3 (biotin conjugate)	-0.994
AGCACUUUCUGUUGUCUGAAAGAAAAGAAAGUGCU [hsa-mir-516a-1_516a-2]	G-clamp-N3 (biotin conjugate)	1.47
GUGGUUUCAGGGCAGUGAUGUUGCCCCUCGGAAGAUAACUAU [hsa-let-7b]	G-clamp-N3 (biotin conjugate)	0.231
UUGCUUAAG [hsa-mir-924]	G-clamp-N3 (biotin conjugate)	-0.513
GGGCGUGGUGGACAGCGAUGCAUCCC [hsa-mir-6803]	G-clamp-N3 (biotin conjugate)	1.56

Provide each entry's pull-down binding Z-score from the list below.
1. UUUGCUAUUACUUUUAAUGGUAAA [hsa-mir-548aj-2]
2. CAGGCUGGUCUCAAACUCCUGGUCUG [hsa-mir-1285-1]
3. GACGGCGCCCGCCCUGGCCCUGGC [hsa-mir-4745]
4. CUUGGCACCUUUGGCCUUAG [hsa-mir-4540]
5. UUUUUGCAUUACGUUCUAUGGCAAAA [hsa-mir-548g]
6. CAAAUCGACUGUCCAAUGGAUUUG [hsa-mir-133a-2]
7. GGAGCUCUGUCCUGUCUCACUCAUUGCUCC [hsa-mir-6749]

## Result
1. 1.61
2. -0.288
3. 0.486
4. 0.795
5. 1.18
6. 2.07
7. -0.199

Provide each entry's pull-down binding Z-score from the list below.
1. UUGAGAACCAG [hsa-mir-4328]
2. UUCAGUUUCCUUACUGGUAA [hsa-mir-302e]
3. UGGGUUGGGUUGGGUUGGGUUGGGUUGGGUUGGGUUGGGU [G4_(UGGGU)8]

## Result
[-0.606, -0.769, 0.596]

----------
System: TO-N3 (biotin conjugate)
measurement protocol: pull-down binding Z-score (relative to library population); higher = stronger binding
condition: RNA library: Library-2
measure: pull-down binding Z-score
Numbers only.

sequence data	reported value
UUGGCACAGGGAAGCGAGUCUGCCAA [hsa-mir-195]	0.504

Provide each entry's pull-down binding Z-score from the list below.
1. AUGUUUAUUGUAAAGAUACUUU [hsa-mir-1305]
2. UCCUAGGCGGGUCGCUGCGGUACCUCCCUCCUGUCUGUGGCGGUGGGAUCCCGUGGCCGUGUUUUCCUGGUG [hsa-mir-663b]
3. GGAUGGGAGACCUGACCCAUCC [hsa-mir-5195]
4. GCUAUGGGUAUUAUUGCUAUGUCUGCUUUUGCAAUGAUGUUUGUCAAACAUAAGCAUGCAUUUCUCUGUUUGUUUUUGUUACCUUCUCUUGCCACUGUAGC
5. CAUCACUGGAAUGUUCCAGCGACU [hsa-mir-3654]
6. AGAGGCUGUGGGCAGGGGGAGAUGUGAAGGAAAGAACUAGGACCCAUUCAUCCACU [hsa-mir-6807]
7. CAGUUUGGUCCAACUUAUUUGGAUGGAGCUG
8. UGCUUGAUCCAUAUGCAACAAGGCA [hsa-mir-103b-1]

## Result
[-0.517, 0.683, -0.0467, -0.98, -0.267, 2.97, -1, 0.57]

Provide each entry's pull-down binding Z-score from the list below.
1. UACAAUUUUUUUUUUUUUAAAUUUUA [hsa-mir-1303]
2. AUAGUUUUAGGGUCAUACCCCAUCUUGGAGAUAACUAU [hsa-let-7f-2]
3. GUUUUUGUACACAAUUAAACCGUGCUUUAACUGGAAUAGCUGUUGAACAAGACAAAAAC [DMSMaPseq_invitro_SARS-CoV-2_Motif_424]
4. GUUCGGAUGCUCGAACUGCACCUCAUGGUCAUGUUAUGGUUGAGCUGGUAGCAGAACUCGAAGGCAUUCAGUAC [DMSMaPseq_invitro_SARS-CoV-2_Motif_11]

## Result
[-0.893, -0.497, 0.21, 0.002]

Provide each entry's pull-down binding Z-score from the list below.
1. GGGCGUGGUGGACAGCGAUGCAUCCC [hsa-mir-6803]
2. UGCUUGACCUGAAUGCUACAAGGCA [hsa-mir-103b-2]

## Result
1: 0.84; 2: -0.303

----------
Tested on: TO-3-N3-2 (biotin conjugate)
measurement protocol: pull-down binding Z-score (relative to library population); higher = stronger binding
condition: RNA library: Library-2
Rule: Yes for pull-down binding Z-score not less than 0.1, No for anything less.

Answered cases to consult:
sequence data	class
CCCAAUGUUGUUAAACCACACGAAAAGGG [IAV_invivo_PA_3_Motif_15+IAV_invivo_PA_3_Motif_15]	Yes
AUGUGAUGUGAGCAGAUGGUUCUCACU [hsa-mir-6758]	No
UCUUCUUGGAGUCAGGAAAA [hsa-mir-320d-2]	No
GCUGCAGGCAAAGCUGGGG [hsa-mir-711]	Yes

## Task Does pull-down binding Z-score meet or surpass 0.1 for AGUUGGACACUCCAUGUGGUAGAGUGUC [hsa-mir-223] ?
## Result No

----------
Test system: TO-N3 (biotin conjugate)
measurement protocol: pull-down binding Z-score (relative to library population); higher = stronger binding
condition: RNA library: Library-2
Rule: criterion met for pull-down binding Z-score not less than 0.2, criterion not met for anything less.

sequence data	target	class
AGCCACUGCGGUCGACCAUGACCUGGA [hsa-mir-619]	TO-N3 (biotin conjugate)	criterion met

## Task Does pull-down binding Z-score meet or surpass 0.2 for GCUGUUGGUCGGGUUGUGACAUUGCCCGCUGUGGAGAUAACUGC [hsa-let-7i] ?
## Result criterion met

## Task Does pull-down binding Z-score meet or surpass 0.2 for UGAGUACUGUAGGCACGGCACUUGUGAAAGAUCAGAAGCUGGUGUUUGUGUAUCUACUAGUGGUAGAUGGGUACUUA [DMSMaPseq_invitro_SARS-CoV-2_Multi_29_ComplexLevel_1] ?
## Result criterion not met

## Task Does pull-down binding Z-score meet or surpass 0.2 for GGAUGAAAGUCAAAGAAUCC [hsa-mir-1262] ?
## Result criterion met

## Task Does pull-down binding Z-score meet or surpass 0.2 for GUGACGCCGCGAAGUGCAC [hsa-mir-3147] ?
## Result criterion met

## Task Does pull-down binding Z-score meet or surpass 0.2 for `UCCUGUGGUAAUUUUAAAGUUACAAAAGGA` ?
## Result criterion not met

## Task Does pull-down binding Z-score meet or surpass 0.2 for AUUCUGAAGUUGUUCUUAAAAAGUUGAAGAAGUCUUUGAAU [DMSMaPseq_invitro_SARS-CoV-2_Motif_213] ?
## Result criterion not met

## Task Does pull-down binding Z-score meet or surpass 0.2 for GGAACACUAUAUUAAUCAGGUUUCC [hsa-mir-6509] ?
## Result criterion not met
